From: patent US20250255960A1

A collection of binders and their measured CD70 CAR+ (positive rate of the cells)
# measured target: T1, Fc-labeled CD70 antigen
# T1 construct: soluble antigen used at 1:100 to stain CAR-T cells; also called detected with the secondary antibody PE-Fc (axis label PE-Fc)
# T1 sequence (P32970 whole entry, species assumed, looked up): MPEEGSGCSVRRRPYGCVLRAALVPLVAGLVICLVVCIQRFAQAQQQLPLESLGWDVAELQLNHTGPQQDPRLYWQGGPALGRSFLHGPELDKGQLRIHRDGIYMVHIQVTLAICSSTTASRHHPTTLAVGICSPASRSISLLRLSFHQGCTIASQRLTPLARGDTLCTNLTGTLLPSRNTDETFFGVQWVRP
# assay protocol: flow cytometry: CAR-transduced T cells stained with Fc-labeled CD70 antigen (1:100) and secondary antibody PE-Fc; NT control 0.61
measured metric: CD70 CAR+ (positive rate of the cells) (%)

INSERT INTO measurements (binder, recorded_value) VALUES
  ('8B4-BBz (other, also called CD70-8B4-BBz) chimeric antigen receptor chain: EVQLVESGGGFVQPGGSLRLSCAASGFTLDGYAVAWFRQAPGKEREGVSCISSSDGSTYYIDSVQGRFTITRNNAKNTVYLQMNSLKPEDTAVYYCTTDVLTSCRSDRWLEVWGQGTLVTVSSTTTPAPRPPTPAPTIASQPLSLRPEACRPAAGGAVHTRGLDFACDIYIWAPLAGTCGVLLLSLVITLYCRFSVVKRGRKKLLYIFKQPFMRPVQTTQEEDGCSCRFPEEEEGGCELRVKFSRSADAPAYQQGQNQLYNELNLGRREEYDVLDKRRGRDPEMGGKPRRKNPQEGLYNELQKDKMAEAYSEIGMKGERRRGKGHDGLYQGLSTATKDTYDALHMQALPPR', 72.1),
  ('9D8-BBz (other, also called CD70-9D8-BBz) chimeric antigen receptor chain: QLQLVESGGGLVQPGGSLRLSCAVSGRTSSTYAMAWFRQAPGKEREIVAVITWSGGRTAYADSVKGRFTIAKDSAKNTVYLQMNSLKPEDTAVYYCAADSEVSSSSEGQYGYESWGQGTQVTVSSTTTPAPRPPTPAPTIASQPLSLRPEACRPAAGGAVHTRGLDFACDIYIWAPLAGTCGVLLLSLVITLYCRFSVVKRGRKKLLYIFKQPFMRPVQTTQEEDGCSCRFPEEEEGGCELRVKFSRSADAPAYQQGQNQLYNELNLGRREEYDVLDKRRGRDPEMGGKPRRKNPQEGLYNELQKDKMAEAYSEIGMKGERRRGKGHDGLYQGLSTATKDTYDALHMQALPPR', 74.1),
  ('8F9-BBz (other, also called CD70-8F9-BBz) chimeric antigen receptor chain: QLQLVESGGGLVQAGGSLRLSCAVSGRTSSTYAMAWFRQAPGKEREIVAVIGWSGGRTAYADSVKGRFTIAKDNAKNTVSLQMNSLKPEDTGVYYCAADSEQSSSSEGQAYGYEDWGQGTLVTVSSTTTPAPRPPTPAPTIASQPLSLRPEACRPAAGGAVHTRGLDFACDIYIWAPLAGTCGVLLLSLVITLYCRFSVVKRGRKKLLYIFKQPFMRPVQTTQEEDGCSCRFPEEEEGGCELRVKFSRSADAPAYQQGQNQLYNELNLGRREEYDVLDKRRGRDPEMGGKPRRKNPQEGLYNELQKDKMAEAYSEIGMKGERRRGKGHDGLYQGLSTATKDTYDALHMQALPPR', 72.7),
  ('5C10-BBz (other, also called CD70-5C10-BBz) chimeric antigen receptor chain: QVQLVESGGGLVQAGGSLRLSCAASGSIFSMNAMGWYRQAPGKQRELVAAITSGGSTNYVDSVKGRFTISRDNAKNTVYLQMNSLKPEDTAVYYCNAGAGRAFPGDYWGQGTQVTVSSTTTPAPRPPTPAPTIASQPLSLRPEACRPAAGGAVHTRGLDFACDIYIWAPLAGTCGVLLLSLVITLYCRFSVVKRGRKKLLYIFKQPFMRPVQTTQEEDGCSCRFPEEEEGGCELRVKFSRSADAPAYQQGQNQLYNELNLGRREEYDVLDKRRGRDPEMGGKPRRKNPQEGLYNELQKDKMAEAYSEIGMKGERRRGKGHDGLYQGLSTATKDTYDALHMQALPPR', 60),
  ('11C9-BBz (other, also called CD70-11C9-BBz) chimeric antigen receptor chain: QVQLVESGGGLVQPGGSLRLSCAASGFTLDYYAVGWFRQAPGKEREGVSCISSSSDGSTYYVDSVLGRFTISRNNAENTVYLQMNSLKPEDTAVYYCSTDVLTSCRSDRYLEVWGQGTLVTVSGTTTPAPRPPTPAPTIASQPLSLRPEACRPAAGGAVHTRGLDFACDIYIWAPLAGTCGVLLLSLVITLYCRFSVVKRGRKKLLYIFKQPFMRPVQTTQEEDGCSCRFPEEEEGGCELRVKFSRSADAPAYQQGQNQLYNELNLGRREEYDVLDKRRGRDPEMGGKPRRKNPQEGLYNELQKDKMAEAYSEIGMKGERRRGKGHDGLYQGLSTATKDTYDALHMQALPPR', 51.3);
